- tested_system: TXA2 synthetase (Oryctolagus cuniculus, UniProt G1TAZ9)
- Construct: to prepare a microsomal fraction
- Sequence (G1TAZ9 1-530): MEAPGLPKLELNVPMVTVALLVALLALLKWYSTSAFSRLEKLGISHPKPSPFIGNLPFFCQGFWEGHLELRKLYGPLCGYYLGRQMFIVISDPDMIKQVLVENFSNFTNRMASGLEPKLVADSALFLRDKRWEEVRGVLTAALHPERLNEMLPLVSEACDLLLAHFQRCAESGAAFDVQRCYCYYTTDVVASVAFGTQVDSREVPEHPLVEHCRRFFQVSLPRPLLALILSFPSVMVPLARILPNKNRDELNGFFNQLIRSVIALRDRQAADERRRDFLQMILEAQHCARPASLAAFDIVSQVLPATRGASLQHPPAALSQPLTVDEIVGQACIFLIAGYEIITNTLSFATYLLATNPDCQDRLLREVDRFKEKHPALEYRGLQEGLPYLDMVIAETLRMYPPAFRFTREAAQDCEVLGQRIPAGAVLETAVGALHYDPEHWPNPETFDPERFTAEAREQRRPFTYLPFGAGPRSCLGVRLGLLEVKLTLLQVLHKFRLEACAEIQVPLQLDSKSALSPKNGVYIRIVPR
- test_description: Inhibition of TXA2 synthetase using rabbit platelet microsome
- stated_conditions: PGH2 5 nmol, 22° C., 3 minutes, measured as TXB2 by EIA, read-out: TXA2 synthetase inhibitory action: amount necessary for 50% inhibition of TXA2 synthesis
property_measured: IC50 (µM)
Give just the numeric value; µM need not be written.

## Task IC50 of Cl.O=c1[nH]nc(OCCCc2ccc(Cl)cc2)c(NCc2cccnc2)c1Br [Compound A, hydrochloride] on TXA2 synthetase (Oryctolagus cuniculus, UniProt G1TAZ9)?
## Result 0.018
